System: UACC-257 melanoma
Assay: NCI-60 one-dose screen, 48 h (100 = growth as untreated, 0 = no growth, -100 = all killed)
Conditions: 10 µM unless noted
About 83,000 compounds went through this panel and 20% of them were active in at least one assay; those are over-represented in the sample as a whole. Activity calls are given as the source filed them. Rule for the calls: active = growth percent below 10; inactive = the rest.
Recorded growth by entry

COMPOUND: Cc1cc(=NO)cc(C)n1O
TEST TARGET: UACC-257 melanoma
growth: 112% (inactive)
//
COMPOUND: C/C=C(/C(=O)NC(N)=O)C(C)C
TEST TARGET: UACC-257 melanoma
growth: 104% (inactive)
//
COMPOUND: CC(=O)Nc1cscc1NC(C)=O
TEST TARGET: UACC-257 melanoma
growth: 104% (inactive)
//
COMPOUND: O=P(O)(O)OC1C(OP(=O)(O)O)C(OP(=O)(O)O)C(OP(=O)(O)O)C(OP(=O)(O)O)C1OP(=O)(O)O.[Cu+2] (stereo unspecified)
TEST TARGET: UACC-257 melanoma
growth: 80.2% (inactive)
//
COMPOUND: CC(=O)c1cccc(OC(=O)c2ccccc2)c1
TEST TARGET: UACC-257 melanoma
growth: 101% (inactive)
//
COMPOUND: Cc1cc(Cl)nc(Nc2ccccc2)n1
TEST TARGET: UACC-257 melanoma
growth: 106% (inactive)

###

Tested on: TK-10 renal
Assay: NCI-60 one-dose screen, 48 h (100 = growth as untreated, 0 = no growth, -100 = all killed)
Details: 10 µM unless noted
About 83,000 compounds went through this panel and 20% of them were active in at least one assay; those are over-represented in the sample as a whole. The source made the active and inactive calls. Rule for the calls: active = growth percent below 10; inactive = the rest.
Listing: growth of selected compounds
MEASURED PARAMETER: growth

COMPOUND: CCCC(=O)Oc1ccc(CC)cc1
EXPERIMENTAL VALUE: 97.2% (inactive)
//
COMPOUND: CCCC(=O)OCC(COC(=O)CCC)OC(=O)CCC
EXPERIMENTAL VALUE: 99.4% (inactive)
//
COMPOUND: Clc1ccc2c(c1)N(C1CCCN(Cc3ccccc3)C1)c1ccccc1S2 (stereo not drawn)
EXPERIMENTAL VALUE: 98.6% (inactive)
//
COMPOUND: COc1cc2c(cc1O)C(=O)CCCC2
EXPERIMENTAL VALUE: 110% (inactive)
//
COMPOUND: CC(C)(C)OC(=O)CC1(O)CCCCC1
EXPERIMENTAL VALUE: 99.6% (inactive)
//
COMPOUND: COC(=O)c1nc(N)nc(C(=O)OC)c1C(=O)c1cccc2ccccc12
EXPERIMENTAL VALUE: 97.5% (inactive)
//
COMPOUND: Oc1ccc(O)c(-c2ccccc2)c1
EXPERIMENTAL VALUE: 96.8% (inactive)
//
COMPOUND: OCCCc1ccccc1
EXPERIMENTAL VALUE: 108% (inactive)

###

System: NCI-H522 lung
Experiment: NCI-60 one-dose screen, 48 h
Details: 10 µM unless noted
Compounds without any hit were thinned out: in the full panel of roughly 83,000, 20% have a hit. The source made the active and inactive calls. The calls were made as follows: active = growth percent below 10; inactive = the rest.
Labels: True (active), False (inactive)

MOLECULE: COc1cc(C2c3cc4c(cc3C(OC(=O)C[n+]3ccccc3)C3COC(=O)C23)OCO4)cc(OC)c1OC (stereo not given)
CLASS NAME: True
--
MOLECULE: O=c1ccn2c(n1)OC1CC2OC1COC(c1ccccc1)(c1ccccc1)c1ccccc1 (stereo not given)
CLASS NAME: False
--
MOLECULE: O=C(N=C1C(=O)C2(CCCCC2)C2(N=C(c3ccccc3)OC2=O)C12CCCCC2)c1ccccc1 (stereo not given)
CLASS NAME: False
--
MOLECULE: C#CCOC(=O)C(N)CS (stereo not given)
CLASS NAME: False
--
MOLECULE: Nc1ccc2ccc(NS(=O)(=O)N3CCCCC3)cc2c1
CLASS NAME: False

# credit: PubChem BioAssay (NCI)
